- Method: Plasma stability assay
- Type: in vitro ADME
- Setup conditions: rat plasma at 37° C.
Measured metric: half-life at […] (min)

Past entries and their recorded results:
Compound: CCC(C)[C@H](NC(=O)[C@@H]1Cc2ccc(O)c(c2)CC=CCCCNCCCC[C@H](N)C(=O)N[C@@H](CCCCN)C(=O)N2CCC[C@H]2C(=O)N1)C(=O)N[C@@H](CC(C)C)C(=O)O (stereo partly shown) [Compound 10, c[K(pentenyl)KPY(All)]IL]
Recorded result: 18
//
Compound: CCC(C)[C@H](NC(=O)[C@@H]1Cc2ccc(O)c(c2)CC=CCNCCC[C@H](N)C(=O)N[C@@H](CCCCN)C(=O)N2CCC[C@H]2C(=O)N1)C(=O)N[C@@H](CC(C)C)C(=O)O (stereo partly shown) [Compound 7, c[Orn(All)KPY(All)]IL]
Recorded result: 30

A. CCC(C)[C@H](NC(=O)[C@H](Cc1ccc(O)cc1)NC(=O)[C@@H]1CCCN1C(=O)[C@H](CCCNC(=N)N)NC(=O)[C@@H](N)CCCNC(=N)N)C(=O)N[C@@H](CC(C)C)C(=O)O (stereo partly shown) [NT 8-13, RRPYIL, reference compound]
B. CCC(C)[C@H](NC(=O)[C@@H]1Cc2ccc(O)c(c2)CC=CCCNCCCC[C@H](N)C(=O)N[C@@H](CCCCN)C(=O)N2CCC[C@H]2C(=O)N1)C(=O)N[C@@H](CC(C)C)C(=O)O (stereo partly shown) [Compound 9, c[K(butenyl)KPY(All)]IL]
Problem: Please let me know which one, A or B , has a lower measured half-life at […] value. Field: selected label. Fill in the label of the entry you choose.
Result: A
(A: 3 min, B: 15 min)

Value source: patent US11591366B2
